# studySystem: GATA4–NKX2-5 transcriptional synergy (Mus musculus, UniProt P42582+Q08369)
# Construct: expressed in transfected cells; host or cells: COS-1
# Sequence (Q08369 whole entry): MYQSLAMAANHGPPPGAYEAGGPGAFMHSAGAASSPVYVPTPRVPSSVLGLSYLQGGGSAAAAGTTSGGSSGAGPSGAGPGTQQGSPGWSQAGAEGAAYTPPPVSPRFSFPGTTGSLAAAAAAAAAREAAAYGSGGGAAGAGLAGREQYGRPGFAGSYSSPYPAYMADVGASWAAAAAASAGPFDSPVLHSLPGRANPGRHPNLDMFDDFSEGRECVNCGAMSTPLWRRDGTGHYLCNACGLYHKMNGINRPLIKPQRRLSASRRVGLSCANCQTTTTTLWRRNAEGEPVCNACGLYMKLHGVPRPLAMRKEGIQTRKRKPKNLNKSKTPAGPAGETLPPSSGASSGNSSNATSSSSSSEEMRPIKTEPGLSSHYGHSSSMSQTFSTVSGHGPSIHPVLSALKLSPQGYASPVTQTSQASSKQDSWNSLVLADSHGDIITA
# Sequence (P42582 whole entry): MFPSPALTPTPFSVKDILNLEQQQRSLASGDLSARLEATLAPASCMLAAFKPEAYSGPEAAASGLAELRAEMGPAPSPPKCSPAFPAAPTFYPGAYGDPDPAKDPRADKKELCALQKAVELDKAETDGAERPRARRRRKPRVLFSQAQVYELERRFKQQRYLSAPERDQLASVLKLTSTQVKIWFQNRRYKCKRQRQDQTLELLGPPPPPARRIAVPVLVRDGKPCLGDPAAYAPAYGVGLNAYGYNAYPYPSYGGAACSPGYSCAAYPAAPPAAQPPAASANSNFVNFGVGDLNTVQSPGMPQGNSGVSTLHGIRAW
# testDetails: GATA4–NKX2-5 transcriptional synergy luciferase reporter assay (3xNKE reporter, COS-1 cells)
# Assay type: cell-based
# conditions: COS-1; compound at 10 µM; luciferase reporter activity, % of control
observable: activity at 10 µM (%)

Cc1onc(-c2ccccc2)c1C(=O)Nc1cnc2ccccc2c1 [SI12]    99.5
Cc1onc(-c2ccccc2)c1NC(=O)c1ccc(N2CCN(C)CC2)cc1 [Compound 67]    124
CCN(CC)c1ccc(/N=C(\SCCF)c2c(-c3ccccc3)noc2C)cc1 [Compound 24b]    108
CCN(CC)c1ccc(/N=C/c2onc(-c3ccccc3)c2C(=O)OC)cc1 [Compound 51]    93.5
CCN(CCO)c1ccc(N(C)C(=O)c2c(-c3ccccc3)noc2C)cc1 [SI36]    117
Fc1ccc(-c2n[nH]cc2C=Nc2ccc(N3CCOCC3)cc2)cc1 [SI82]    87.6
CCN(CC)c1ccc(C(=O)Nc2c(C(N)=O)oc3ccccc23)cc1 [SI106]    95.8
Cc1onc(-c2ccccc2)c1C(=O)Nc1ccc(C(=O)Nc2ccccc2)cc1 [SI11]    98.5
COc1ccc(NC(=O)c2cnoc2-c2ccccc2)cc1 [SI70]    100

====

# studySystem: GATA4–NKX2-5 transcriptional synergy (Mus musculus, UniProt P42582+Q08369)
# Construct: expressed in transfected cells; host or cells: COS-1
# testDetails: GATA4–NKX2-5 transcriptional synergy luciferase reporter assay (3xNKE reporter, COS-1 cells)
# Assay type: cell-based
# conditions: COS-1; compound 10 µM; luciferase reporter activity; spread in separate STDEV column
observable: activity at 10 µM (%)

Before answering, review these 3 worked examples.
COc1ccc(-c2cc(NCc3ccc(N(C)C)cc3)n[nH]2)cc1 [SI92]    85.4
Cc1onc(-c2ccccc2)c1NCc1ccc(N(CCO)CCO)cc1 [SI43]    99.7
CCc1cc(-c2onc(C)c2C(=O)Nc2ccc(N(CC)CC)cc2)no1 [SI75]    88.8

I: CCN(CC)C(=O)c1cc(-c2cccs2)on1 [SI114]
II: Cc1onc(-c2ccccc2)c1C(=O)Nc1ccc(OCC(F)(F)F)c(Cl)c1 [SI13]
## Task # argmax over activity at 10 µM for candidates I and II Identify your pick by its label.
## Result I

====

# System: COS-1 cells
# testDetails: LDH assay (necrosis)
# Type: cell-based
# conditions: 10 µM
observable: LDH.10µM
Field format: numeric only.

CCN(CC)c1ccc(/C=N/c2c(-c3ccccc3)noc2C)c(O)c1    -0.96
CCCn1nnc(-c2ccccc2)c1C(=O)Nc1ccc(N(CC)CC)cc1    1.55
CC(=O)N(Cc1ccc(N(C)C)cc1)c1c(-c2ccccc2)noc1C    -0.2
COc1ccc(-c2cc(N)nn2C(=O)c2c(-c3ccccc3)noc2C)cc1    0.2
CCN(CC)c1ccc(NC(=O)c2c(-c3cccc([N+](=O)[O-])c3)noc2C)cc1 [Compound 39g]    -0.41
CCN(CC)c1ccc(NC(=O)c2c(-c3ccsc3)noc2C)cc1 [Compound 39m]    -1.72

Here's the next entry for you.
## Task What does the record list as LDH.10µM for CCN(CC)c1ccc(NC(=O)c2c(-c3ccncc3)noc2C)cc1 [Compound 39c] ?
## Result -0.99

====

# studySystem: NKX2-5 transcriptional activity (Mus musculus, UniProt P42582)
# Construct: expressed in transfected cells; host or cells: COS-1
# Sequence (P42582 whole entry): as above
# testDetails: NKX2-5 luciferase reporter assay (3xNKE reporter, COS-1 cells)
# Assay type: cell-based
# conditions: COS-1; 10 µM; luciferase reporter activity relative to control; read-out: NKX.10µM
observable: activity at 10 µM (%)

CCCn1nnc(-c2ccccc2)c1C(=O)Nc1ccc(N(CC)CC)cc1    91.1
COc1ccc(-c2cc(N)nn2C(=O)c2c(-c3ccccc3)noc2C)cc1    65.2

P: CCN(CC)c1ccc(NC(=O)c2c[nH]nc2-c2ccccc2)cc1
Q: CN(C)c1ccc(NCc2c[nH]nc2-c2ccc(F)cc2)cc1
## Task Could you tell me which of P and Q has the lower activity at 10 µM reading? Pick one; state its label.
## Result Q

1: CCN(CC)c1ccc(NC(=O)c2cnc3ncccn23)cc1 [Compound 47aa]
2: Cc1onc(-c2ccccc2)c1C(=O)Nc1ccc(OCc2ccccc2)cc1
## Task Hi there, can you help? I need to know whether 1 or 2 has lower measured activity at 10 µM. // output: label of the selected item
## Result 2

====

Listed next: entries and their corresponding LDH.10µM.
# Tested on: COS-1 cells
# testDetails: LDH assay (necrosis)
# Format: cell-based
# conditions: 10 µM
Just the number, please, no unit attached.

CN(C)c1ccc(NCc2c[nH]nc2-c2ccc(F)cc2)cc1    -1.06
CC(=O)COC(=O)c1ccc(OCc2c(-c3ccccc3)noc2C)cc1 [Compound 35d]    -0.15
CCN(CC)c1ccc(NC(=O)c2c[nH]nc2-c2ccccc2)cc1    1.11
CCN(CC)c1ccc(NC(=O)c2csc(C)c2-c2ccccc2)cc1 [Compound 47t]    0.5
Cc1onc(-c2ccccc2)c1C(=O)Nc1ccc(C#C[Si](C)(C)C)cc1    0.61

## Task Data request, read-out LDH.10µM, for CCN(CC)c1ccc(NC(=O)c2c(-c3ccccc3)nnn2CCc2ccccc2)cc1
## Result -0.76

## Task Now give it for CCN(CC)c1ccc(NC(=O)c2cc(C)oc2-c2ccccc2)cc1 too.
## Result -0.26

## Task Now try Cc1onc(-c2ccccc2)c1C(=O)Nc1ccc(OCc2ccccc2)cc1 .
## Result -0.31

## Task Can you check CC[N+](O)(CC)c1ccc(NC(=O)c2c(-c3ccccc3)noc2C)cc1 next?
## Result 1

====

# studySystem: GATA4–NKX2-5 transcriptional synergy (Mus musculus, UniProt P42582+Q08369)
# Construct: expressed in transfected cells; host or cells: COS-1
# testDetails: GATA4–NKX2-5 transcriptional synergy luciferase reporter assay (3xNKE reporter, COS-1 cells)
# Type: cell-based
# conditions: 3 µM compound; GATA4–NKX2-5 transcriptional synergy reporter, COS-1 cells
observable: activity at 3 µM (%)

Guide cases for activity at 3 µM, answers given:
Cc1onc(-c2ccccc2Cl)c1C(=O)Nc1ccc2oc(-c3ccccc3)cc(=O)c2c1    96.2
CCN(CC)c1ccc(NC(=O)c2c(-c3ccoc3)noc2C)cc1 [Compound 39n]    119
O=C(Nc1ccc2oc(-c3ccccc3)cc(=O)c2c1)c1snnc1-c1ccccc1    103
CCN(CC)c1ccc(NC(=O)c2c(-c3ccc(Br)cc3)noc2C)cc1 [Compound 39i]    95.1
Cc1onc(-c2ccccc2)c1COc1ccc(C(=O)OCCCC#N)cc1 [Compound 35b]    85.5
Cc1cc(C(=O)Nc2ccc3oc(-c4ccccc4)cc(=O)c3c2)c(-c2ccccc2)o1    90.8
CCN(CC)c1ccc(N(Cc2c(-c3ccccc3)noc2C)C(C)=O)cc1    93.1
Cc1onc(-c2ccccc2)c1C(=O)Nc1ccc2c(c1)C(=O)CC(C)(C)O2    123
Cc1onc(-c2ccccc2)c1CNc1ccc2oc(-c3ccccc3)cc(=O)c2c1    94.8
CCN(CC)c1ccc(NCc2c[nH]nc2C2CCCCC2)cc1    88.4

A: CCN(CC)c1ccc(NC(=O)c2c(-n3cccc3)sc(C)c2C)cc1
B: CCN(c1ccc(NC(=O)c2c(C)noc2-c2snnc2C)cc1)C(C)C
## Task Higher activity at 3 µM between A and B ? Give the label of your selection.
## Result A

====

# studySystem: GATA4–NKX2-5 transcriptional synergy (Mus musculus, UniProt P42582+Q08369)
# Construct: expressed in transfected cells; host or cells: COS-1
# testDetails: GATA4–NKX2-5 transcriptional synergy luciferase reporter assay (3xNKE reporter, COS-1 cells)
# Format: cell-based
# conditions: 10 µM compound; GATA4–NKX2-5 transcriptional synergy reporter, COS-1 cells
observable: activity at 10 µM (%)

COC(=O)c1ccc(N(C)C(=O)c2c(-c3ccccc3)noc2C)cc1 [SI110]    117
O=C(Nc1ccc2oc(-c3ccccc3)cc(=O)c2c1)c1ncoc1-c1ccccc1 [SI102]    91.3
Cc1cc(C(=O)Nc2ccc3oc(-c4ccccc4)cc(=O)c3c2)c(-c2ccccc2)o1 [SI101]    78
CCN(CC)c1ccc(NC(=O)c2ccoc2CCc2cccs2)cc1 [Compound 47i]    103
CCc1noc(C)c1C(=O)Nc1ccc(N(CC)CC)cc1 [Compound 39b]    104

====

# studySystem: GATA4–NKX2-5 transcriptional synergy (Mus musculus, UniProt P42582+Q08369)
# Construct: expressed in transfected cells; host or cells: COS-1
# testDetails: GATA4–NKX2-5 transcriptional synergy luciferase reporter assay (3xNKE reporter, COS-1 cells)
# Type: cell-based
# conditions: COS-1; compound 3 µM; luciferase reporter activity; spread in separate STDEV column
observable: activity at 3 µM (%)

Worked cases, activity at 3 µM given:
CCN(CC)C(=O)c1cc(-c2cccs2)on1    124
Cc1cc(-c2onc(C)c2C(=O)N(C)c2ccc3oc(-c4ccccc4)cc(=O)c3c2)no1    122
Cc1onc(-c2ccccc2)c1NCc1ccc(N(CCO)CCO)cc1    109
CCN(CC)c1ccc(NC(=O)c2cc(C)oc2-c2cc(C)on2)cc1 [Compound 47h]    118
Cc1onc(-c2ccccc2)c1C(=O)Nc1ccc2c(c1)C(=O)CC2    103
Cc1onc(-c2ccccc2)c1C(=O)Nc1ccc(C(=O)OCCC#N)cc1    98.7
Cc1onc(-c2ccc(Br)s2)c1C(=O)NC1CC1    90
Cc1onc(-c2ccccc2)c1C(=O)Nc1ccc(C(=O)OCc2ccco2)cc1    99.4
CCc1cc(-c2onc(C)c2C(=O)Nc2ccc(N(CC)CC)cc2)no1    97.5
CCN(CC)c1ccc(NC(=O)c2cn(C)nc2-c2cc(C)on2)cc1 [Compound 47f]    110

I: Cc1onc(-c2ccccc2)c1C(=O)N(C)c1ccc(C(=O)O)cc1
II: CN(C)c1ccc(CNc2cc(-c3ccccc3)nn2-c2ccccc2)cc1
## Task Hi team, can someone confirm which has the larger activity at 3 µM: I or II ? Thanks. Record your answer as the label of the chosen record.
## Result I

Data origin: paper PMC7076710
